# Test system: HePG-2
# Protocol Notes: Cytotoxic activity, MTT assay
# Format: cell-based
# Conditions Used: Homo sapiens, HepG2; MTT, 24 h; table title prints "at 2 µM"; read-out: Cytotoxic activity (IC50) HePG-2
Measurement Kind: IC50 (µM)
Value expressed in µM; do not type the unit.

Find IC50 (HePG-2) for the entry COc1cccc2c1C(=O)c1c(O)c3c(c(O)c1C2=O)C[C@@](O)(C(=O)CO)C[C@@H]3O[C@H]1C[C@H](N)[C@H](O)[C@H](C)O1 [Doxorubicin, reference compound]
4.5

* * *

Item-by-item account of inhibition at 15 µM
# Tested on: Escherichia coli ATCC25922
# Protocol Notes: Antibacterial activity, growth inhibition in 96 well plates (OD600)
# Assay type: cell-based
# Conditions Used: ATCC25922, at 15 µM, NA: no activity, read-out: Growth inhibition % Escherichia coli

What value of inhibition at 15 µM has been reported for the following compound? COC(=O)c1cccc2nc3c(C(=O)OC)cccc3nc12 [Compound 1, dimethyl phenazine-1,6-dicarboxylate]
9.93%

Looking for the measured inhibition at 15 µM of COc1ccc(C(N)=O)cc1 [Compound 10, p-anisamide] , can you help?
19.3%

Which inhibition at 15 µM is listed for COC(=O)c1cccc2nc3c(C(=O)O)cccc3nc12 [Compound 2] ?
11.2%

Which inhibition at 15 µM value belongs to CNC(C)C1CCC(N)C(OC2C(N)CC(N)C(OC3OCC(C)(O)C(NC)C3O)C2O)O1 (stereo not shown) [Gentamicin, reference compound] ?
99%

Origin of the recorded values: paper PMC7281614
